- assay.setup: in methanol, 303.15 K
reported.endpoint: solubility (mole fraction)
Give bare numbers.

For this compound ( `O=Cc1ccc(O)c(Br)c1` ), measured solubility (mole fraction) is 0.0121

====

- assay.setup: in methanol, 313.15 K
reported.endpoint: solubility (mole fraction)
Answers are plain numbers.

For this compound ( `O=Cc1ccc(O)c(Br)c1` ), measured solubility (mole fraction) is 0.0165

====

- assay.setup: in DMF, 298.15 K
reported.endpoint: solubility (mole fraction)
One number for each entry.

For this molecule ( `O=Cc1ccc(O)c(Br)c1` ), measured solubility (mole fraction) is 0.0236

====

- assay.setup: in n-pentanol, 298.15 K
reported.endpoint: solubility (mole fraction)
One number for each entry.

For this compound ( `O=Cc1ccc(O)c(Br)c1` ), measured solubility (mole fraction) is 0.0215

====

- assay.setup: in acetonitrile, 298.15 K
reported.endpoint: solubility (mole fraction)
Answers are plain numbers.

For this molecule ( `O=Cc1ccc(O)c(Br)c1` ), measured solubility (mole fraction) is 0.013

====

- assay.setup: in cyclohexane, 323.15 K
reported.endpoint: solubility (mole fraction)

For this compound ( `O=Cc1ccc(O)c(Br)c1` ), measured solubility (mole fraction) is 0.00167

====

- assay.setup: in water, 313.15 K
reported.endpoint: solubility (mole fraction)
One number for each entry.

For this molecule ( `O=Cc1ccc(O)c(Br)c1` ), measured solubility (mole fraction) is 0.000314

====

- assay.setup: in isopropanol, 298.15 K
reported.endpoint: solubility (mole fraction)
Numbers only.

For this compound ( `O=Cc1ccc(O)c(Br)c1` ), measured solubility (mole fraction) is 0.0144

====

- assay.setup: in cyclohexane, 308.15 K
reported.endpoint: solubility (mole fraction)
One number for each entry.

For this compound ( `O=Cc1ccc(O)c(Br)c1` ), measured solubility (mole fraction) is 0.000949

====

- assay.setup: in ethylene glycol, 313.15 K
reported.endpoint: solubility (mole fraction)
Answers are plain numbers.

For this compound ( `O=Cc1ccc(O)c(Br)c1` ), measured solubility (mole fraction) is 0.0177

====

- assay.setup: in ethylene glycol, 293.15 K
reported.endpoint: solubility (mole fraction)

For this compound ( `O=Cc1ccc(O)c(Br)c1` ), measured solubility (mole fraction) is 0.00903

====

- assay.setup: in methanol, 278.15 K
reported.endpoint: solubility (mole fraction)
Give bare numbers.

For this molecule ( `O=Cc1ccc(O)c(Br)c1` ), measured solubility (mole fraction) is 0.00568

====

- assay.setup: in cyclohexane, 298.15 K
reported.endpoint: solubility (mole fraction)
Answers are plain numbers.

For this molecule ( `O=Cc1ccc(O)c(Br)c1` ), measured solubility (mole fraction) is 0.000609

====

- assay.setup: in cyclohexane, 303.15 K
reported.endpoint: solubility (mole fraction)

For this compound ( `O=Cc1ccc(O)c(Br)c1` ), measured solubility (mole fraction) is 0.000766

====

- assay.setup: in isopropanol, 288.15 K
reported.endpoint: solubility (mole fraction)
Answers are plain numbers.

For this compound ( `O=Cc1ccc(O)c(Br)c1` ), measured solubility (mole fraction) is 0.0104

====

- assay.setup: in ethanol, 308.15 K
reported.endpoint: solubility (mole fraction)
Numbers only.

For this molecule ( `O=Cc1ccc(O)c(Br)c1` ), measured solubility (mole fraction) is 0.0188

====

- assay.setup: in n-octanol, 303.15 K
reported.endpoint: solubility (mole fraction)

For this compound ( `O=Cc1ccc(O)c(Br)c1` ), measured solubility (mole fraction) is 0.0267
